- assay_remarks: Affinity biosensor binding with LPS
- assay_context: KB 0.25-4 μM; IAsys FASTfit; read-out: dissociation equilibrium constant (KD) with LPS
measure_name: Kd

Query: Note Kd for the molecule shown: `NCCCN(CCCCNCCCNC(=O)CCc1ccc(O)c(O)c1)C(=O)CCc1ccc(O)c(O)c1`
Result: 1240 nM

---

- measured_on: CpG DNA
- assay_remarks: Affinity biosensor binding with immobilized CpG DNA
- assay_context: KB 0.25-4 μM; IAsys FASTfit; read-out: dissociation equilibrium constant (KD) with CpG DNA
measure_name: pKd
Entry type: numeric. Quantity: pKd, the -log10 of concentration in molar units.

Query: Give the reported value of pKd for this record: `NCCCN(CCCCNCCCNC(=O)CCc1ccc(O)c(O)c1)C(=O)CCc1ccc(O)c(O)c1`
Result: 6.18

---

- assay_remarks: Affinity biosensor binding with LPS
- assay_context: with LPS; read-out: dissociation equilibrium constant (KD = kass/kdiss)
measure_name: Kd (µM)
Supply the numeric figure in µM, leaving out any unit text.

Query: Provide one value: measured Kd of NCCCN(CCCCNCCCNC(=O)CCc1ccc(O)c(O)c1)C(=O)CCc1ccc(O)c(O)c1 [KB, Kukoamine B]
Result: 1.24

---

- measured_on: CpG DNA
- assay_remarks: Affinity biosensor binding with immobilized CpG DNA
- assay_context: with CpG DNA; read-out: dissociation equilibrium constant (KD = kass/kdiss)
measure_name: pKd
API: returns pKd as number; meaning -log10 of concentration in mol/L.

Query: Supply pKd value. Item: NCCCN(CCCCNCCCNC(=O)CCc1ccc(O)c(O)c1)C(=O)CCc1ccc(O)c(O)c1 [KB, Kukoamine B]
Result: 6.18
